ASSAY_EXPLANATION: Drug distribution in porcine ocular tissues ex vivo, comparison across tissues
Assay type: in vitro ADME
CONDITION_CONTEXT: porcine tissues ex vivo, Figure 1
TEST_READOUT: time to reach equilibrium in tissue

Answered examples (4):
[
  {
    "COMPOUND": "CC(C)NCC(O)COc1cccc2ccccc12 (centres unmarked) [Propranolol]",
    "time to reach equilibrium in tissue": "≈ 60 min"
  },
  {
    "COMPOUND": "CC(C)NCC(O)COc1ccc(CCOCC2CC2)cc1 (centres unmarked) [Betaxolol]",
    "time to reach equilibrium in tissue": "≈ 60 min"
  },
  {
    "COMPOUND": "CC(C)NCC(O)COc1ccc(CC(N)=O)cc1 (centres unmarked) [Atenolol]",
    "time to reach equilibrium in tissue": "≈ 30 min"
  },
  {
    "COMPOUND": "CC(C)(C)NCC(O)COc1cccc2c1CC(O)C(O)C2 (centres unmarked) [Nadolol]",
    "time to reach equilibrium in tissue": "≈ 30 min"
  }
]

Consider the record given below.
-- ask Entry CC(C)(C)NC[C@H](O)COc1nsnc1N1CCOCC1 [Timolol] has what time to reach equilibrium in tissue?
-- reply ≈ 30 min
